Can you tell me BHET released for the items I'm about to list?
# procedureDetails: BHET released, HPLC; higher = more BHET released; extreme values may be limits of the assay
# condition: PET substrate: aFilm; 60 °C; pH 6.5; 24 h
Answers are plain numbers, in mM.

[
  {
    "seqString": "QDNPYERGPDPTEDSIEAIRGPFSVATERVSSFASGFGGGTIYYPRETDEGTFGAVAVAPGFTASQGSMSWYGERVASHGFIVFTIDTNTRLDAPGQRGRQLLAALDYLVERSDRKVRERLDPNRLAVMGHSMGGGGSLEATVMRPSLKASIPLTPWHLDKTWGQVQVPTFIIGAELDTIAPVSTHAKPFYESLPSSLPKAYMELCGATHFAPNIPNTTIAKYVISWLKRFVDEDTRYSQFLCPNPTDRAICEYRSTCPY [Cut190*SS]",
    "dataValue": 0.00205
  }
]

Here is another sequence to look at.
State its BHET released for this sequence: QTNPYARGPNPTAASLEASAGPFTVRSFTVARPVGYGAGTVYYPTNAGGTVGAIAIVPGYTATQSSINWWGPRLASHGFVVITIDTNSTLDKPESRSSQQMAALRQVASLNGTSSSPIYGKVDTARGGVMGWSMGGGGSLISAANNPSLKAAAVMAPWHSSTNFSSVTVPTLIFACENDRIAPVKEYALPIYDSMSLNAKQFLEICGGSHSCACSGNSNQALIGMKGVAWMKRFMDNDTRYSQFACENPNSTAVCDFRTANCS [HotPETase]
0

====

# procedureDetails: PET hydrolysis product formed (TPA+MHET+BHET, UV-Vis) per mg enzyme (mmol/mg enzyme); higher = more PET depolymerisation activity; extreme values may be limits of the assay
# condition: PET substrate: cryPow; 70 °C; pH 5.5; 24 h
measurementType: PET hydrolysis product formed

# count of solved cases: 2
[
  {
    "seqString": "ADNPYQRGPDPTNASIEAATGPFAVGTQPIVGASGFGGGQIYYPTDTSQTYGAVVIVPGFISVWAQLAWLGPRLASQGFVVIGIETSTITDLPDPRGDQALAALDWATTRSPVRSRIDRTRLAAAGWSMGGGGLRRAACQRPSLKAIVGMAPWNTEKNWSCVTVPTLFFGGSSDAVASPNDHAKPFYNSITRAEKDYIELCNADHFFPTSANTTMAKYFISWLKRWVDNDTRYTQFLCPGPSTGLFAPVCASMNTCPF [CaPETaseM9]",
    "dataValue": 0.00351
  },
  {
    "seqString": "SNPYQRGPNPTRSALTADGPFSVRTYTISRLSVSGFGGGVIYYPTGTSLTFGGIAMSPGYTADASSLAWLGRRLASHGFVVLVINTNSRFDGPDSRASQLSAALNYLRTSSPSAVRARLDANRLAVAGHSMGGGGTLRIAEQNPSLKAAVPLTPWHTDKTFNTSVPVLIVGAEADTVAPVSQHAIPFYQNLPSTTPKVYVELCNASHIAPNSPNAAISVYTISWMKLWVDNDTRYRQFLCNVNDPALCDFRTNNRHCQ [LCC-ICCG RIP]",
    "dataValue": 0.0369
  }
]

Consider now this further sequence.
Look up and report measured PET hydrolysis product formed for this entry: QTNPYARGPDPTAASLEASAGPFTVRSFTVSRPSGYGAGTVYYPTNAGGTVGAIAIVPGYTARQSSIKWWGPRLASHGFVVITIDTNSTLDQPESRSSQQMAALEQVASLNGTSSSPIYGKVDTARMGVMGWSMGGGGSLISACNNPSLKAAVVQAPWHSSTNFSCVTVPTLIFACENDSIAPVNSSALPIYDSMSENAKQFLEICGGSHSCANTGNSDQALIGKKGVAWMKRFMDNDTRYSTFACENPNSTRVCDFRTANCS [Z1-PETase]
0

====

# procedureDetails: MHET released, HPLC; higher = more MHET released; extreme values may be limits of the assay
# condition: PET substrate: aFilm; 60 °C; pH 5.5; 24 h
Output satisfied for MHET released not less than 0.008 mM; output not satisfied otherwise.

# example entries with known answers
[
  {
    "seqString": "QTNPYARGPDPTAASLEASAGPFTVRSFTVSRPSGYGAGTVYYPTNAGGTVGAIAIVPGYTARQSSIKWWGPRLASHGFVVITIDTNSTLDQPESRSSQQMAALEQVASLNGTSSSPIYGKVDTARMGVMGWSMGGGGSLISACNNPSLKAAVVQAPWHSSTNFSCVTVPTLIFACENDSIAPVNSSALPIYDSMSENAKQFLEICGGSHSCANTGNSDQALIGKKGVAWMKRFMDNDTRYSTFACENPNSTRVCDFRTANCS [Z1-PETase]",
    "category": "not satisfied"
  },
  {
    "seqString": "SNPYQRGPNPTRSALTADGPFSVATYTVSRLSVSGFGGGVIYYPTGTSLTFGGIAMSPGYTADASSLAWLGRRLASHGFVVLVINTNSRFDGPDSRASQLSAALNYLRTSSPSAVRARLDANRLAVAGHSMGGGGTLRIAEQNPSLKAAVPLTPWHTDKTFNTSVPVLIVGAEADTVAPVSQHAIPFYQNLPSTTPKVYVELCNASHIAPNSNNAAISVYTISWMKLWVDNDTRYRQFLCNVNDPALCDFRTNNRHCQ [LCC-ICCG]",
    "category": "satisfied"
  },
  {
    "seqString": "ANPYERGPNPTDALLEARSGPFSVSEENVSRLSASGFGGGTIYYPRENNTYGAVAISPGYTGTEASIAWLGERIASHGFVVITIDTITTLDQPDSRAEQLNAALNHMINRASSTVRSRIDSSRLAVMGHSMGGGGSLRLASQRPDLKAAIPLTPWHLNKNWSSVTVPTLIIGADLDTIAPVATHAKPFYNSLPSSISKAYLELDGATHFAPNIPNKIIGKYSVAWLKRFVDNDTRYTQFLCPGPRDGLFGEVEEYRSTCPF [TfCut2]",
    "category": "satisfied"
  }
]

Has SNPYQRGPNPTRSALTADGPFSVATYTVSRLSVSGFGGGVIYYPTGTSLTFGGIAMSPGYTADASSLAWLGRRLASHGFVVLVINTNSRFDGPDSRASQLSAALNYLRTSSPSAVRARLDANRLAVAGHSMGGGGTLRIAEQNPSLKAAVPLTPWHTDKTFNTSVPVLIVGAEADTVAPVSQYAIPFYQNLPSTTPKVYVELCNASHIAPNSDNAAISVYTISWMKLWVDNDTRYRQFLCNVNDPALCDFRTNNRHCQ [LCC-A2] a recorded MHET released greater than or equal to 0.008 mM?
satisfied

Quick check: does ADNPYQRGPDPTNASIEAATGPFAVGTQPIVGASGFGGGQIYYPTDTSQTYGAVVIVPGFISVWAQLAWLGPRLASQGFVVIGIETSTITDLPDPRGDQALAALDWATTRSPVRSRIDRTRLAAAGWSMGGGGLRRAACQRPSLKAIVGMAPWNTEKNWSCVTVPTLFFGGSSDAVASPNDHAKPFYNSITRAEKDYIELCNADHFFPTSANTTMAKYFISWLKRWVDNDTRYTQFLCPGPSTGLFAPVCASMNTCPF [CaPETaseM9] have MHET released greater than or equal to 0.008 mM?
satisfied

====

Provide the recorded MHET released for the entries that follow.
# procedureDetails: MHET released, HPLC; higher = more MHET released; extreme values may be limits of the assay
# condition: PET substrate: aFilm; 60 °C; pH 8.5; 24 h

See these solved cases before continuing.
[
  {
    "seqString": "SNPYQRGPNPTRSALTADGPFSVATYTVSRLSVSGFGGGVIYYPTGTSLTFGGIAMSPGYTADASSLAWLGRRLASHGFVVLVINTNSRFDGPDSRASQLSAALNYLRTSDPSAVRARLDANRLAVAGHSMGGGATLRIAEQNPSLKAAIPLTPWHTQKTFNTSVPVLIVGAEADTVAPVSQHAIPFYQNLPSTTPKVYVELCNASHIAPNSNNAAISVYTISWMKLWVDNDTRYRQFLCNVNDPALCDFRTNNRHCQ [LCC-ICCG DAQI]",
    "MHET released": "0.331 mM"
  },
  {
    "seqString": "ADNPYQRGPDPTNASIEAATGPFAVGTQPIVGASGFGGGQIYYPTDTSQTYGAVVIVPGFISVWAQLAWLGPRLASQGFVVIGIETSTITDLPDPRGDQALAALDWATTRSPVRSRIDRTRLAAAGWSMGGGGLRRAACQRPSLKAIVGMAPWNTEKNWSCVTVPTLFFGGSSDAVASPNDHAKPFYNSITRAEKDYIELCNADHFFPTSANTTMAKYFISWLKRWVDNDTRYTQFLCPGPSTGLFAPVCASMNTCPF [CaPETaseM9]",
    "MHET released": "0.108 mM"
  }
]

Please turn your attention to the following entry.
Give recorded MHET released. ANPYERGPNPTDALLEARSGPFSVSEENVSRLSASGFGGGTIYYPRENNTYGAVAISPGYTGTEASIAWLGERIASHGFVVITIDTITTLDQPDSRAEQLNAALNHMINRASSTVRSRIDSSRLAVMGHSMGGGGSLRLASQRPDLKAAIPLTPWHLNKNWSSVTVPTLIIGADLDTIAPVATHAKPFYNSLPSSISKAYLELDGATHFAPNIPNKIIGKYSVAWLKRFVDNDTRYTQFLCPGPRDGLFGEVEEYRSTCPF [TfCut2]
0.105 mM
